Entries and their INHIBITION values follow.
# Tested on: Plasmodium berghei
# assayExplanation: Screen against P. berghei liver stage (PbLuc), transformed with Luciferase, at 10uM
# Assay type: functional, HepG2
# conditionsUsed: tested at 10 uM
Out of some 69,000 compounds screened, about 8,600 (12%) showed an effect of 50% or more. The sample holds strong results, similar compounds and a random draw of the others, so the mix is not that of the screen.
Form entry: value (%) — number only.

Some entries whose results are on file:
**Query** Given the compound CC/C=C(\C)CN1CCC(CNC(=O)c2ccc(=O)[nH]c2)CC1 , write its reported INHIBITION.
**Result** -24.7

**Query** Given the compound CC(O)CN(C)C(=O)CCNC(=O)OC(C)(C)C (stereo not drawn) , write its reported INHIBITION.
**Result** 44.9

**Query** Given the compound O=C([C@@H]1C[C@@H]2CCN(C3CCOCC3)C[C@@H]2O1)N1CCOCC1 , write its reported INHIBITION.
**Result** -9.26

API: the following record is the query input.
**Query** Given the compound O=C(c1cccc(Oc2ccccc2)c1)N1CCCC(O)(CO)CC1 (stereo not drawn) , write its reported INHIBITION.
**Result** 16.1

---

Entries and their INHIBITION values follow.
# Test system: Plasmodium berghei
# assayExplanation: Screen against P. berghei liver stage (PbLuc), transformed with Luciferase, at 10uM
# Type: functional, HepG2
# conditionsUsed: tested at 10 uM
Among all 69,000 compounds or so, about 8,600 (12%) showed an effect of 50% or more. The sample holds strong results, similar compounds and a random draw of the others, so the mix is not that of the screen.
Form entry: value (%) — number only.

**Query** Given the molecule Nc1c(N2CCOCC2)ncnc1N1CCOCC1 , write its reported INHIBITION.
**Result** 50

**Query** Given the molecule CC(C)NC(=O)CNC(=O)c1csc(Cc2ccccc2F)n1 , write its reported INHIBITION.
**Result** -20.6

**Query** Given the molecule COc1ccc(F)cc1NC(=O)NCC1(CN2CCOCC2)CC1 , write its reported INHIBITION.
**Result** 28.15

**Query** Given the molecule Cc1cnn(CC2CN(Cc3cccc(C(N)=O)c3)CCO2)c1 (centres undefined) , write its reported INHIBITION.
**Result** 16.9

**Query** Given the molecule CSCCC(=O)N1C[C@@H](C)[C@](O)(C(C)C)C1 , write its reported INHIBITION.
**Result** 22.5

**Query** Given the molecule CCCn1nccc1-c1nccnc1CC1CCN(C(C)=O)CC1 , write its reported INHIBITION.
**Result** 19.3

**Query** Given the molecule c1ncn(Cc2cn3c(n2)CN(CC2CCCC2)CC3)n1 , write its reported INHIBITION.
**Result** -16.9

**Query** Given the molecule CC(C)c1noc(-c2cccc(OCC(N)=O)c2)n1 , write its reported INHIBITION.
**Result** -110

***
**Query** Given the molecule C=c1ncsc1=C1NC(c2cccc(CN3CCOCC3)c2)=NO1 , write its reported INHIBITION.
**Result** 12.6

**Query** Given the molecule CC(NC(=O)c1ccc(=O)n(C)c1)c1ccccc1-n1cccn1 (centres undefined) , write its reported INHIBITION.
**Result** 53.8

**Query** Given the molecule COCCOCC1CCN(C(=O)c2ccc3[nH]cnc3c2)C1 (centres undefined) , write its reported INHIBITION.
**Result** -24.9

**Query** Given the molecule Cc1ccc2nc(C(=O)N(C)[C@@H]3CC[C@@H](N4CCCC4)[C@@H]3O)cn2c1 , write its reported INHIBITION.
**Result** 1.068

**Query** Given the molecule Cc1ccccc1C(C)NC(=O)c1ccc(=O)n(C)c1 (centres undefined) , write its reported INHIBITION.
**Result** 25.5

**Query** Given the molecule CC(C)N1CC(C(=O)NCc2cccnc2-n2cccn2)CC1=O (centres undefined) , write its reported INHIBITION.
**Result** 6.2475

---

Entries and their INHIBITION values follow.
# System: Plasmodium berghei
# assayExplanation: Screen against P. berghei liver stage (PbLuc), transformed with Luciferase, at 10uM
# Assay type: functional, HepG2
# conditionsUsed: tested at 10 uM
In all, about 69,000 compounds went through this assay and about 8,600 (12%) showed an effect of 50% or more. What follows is part of a selection rich in strong results, with near analogues and random picks from the rest.
State the value, then name its unit.

**Query** Write INHIBITION of CC(C)N(C)CC(=O)N(C)C(c1cccc(F)c1)c1ccccn1 (stereo not drawn) ; system used: Plasmodium berghei
**Result** -55.4%

**Query** Write INHIBITION of CCc1nc(N2CCC3(CC2)CC(=O)N(Cc2ccc(Cl)cc2)C3)no1 ; system used: Plasmodium berghei
**Result** -88.1%

**Query** Write INHIBITION of CN1CCC(Cc2nc(-c3ccnn3C)n(Cc3ccccc3)n2)CC1 ; system used: Plasmodium berghei
**Result** 64.6%

**Query** Write INHIBITION of CCC[C@H]1CN(S(C)(=O)=O)C[C@@H]1NC(=O)CCOCC ; system used: Plasmodium berghei
**Result** 27.6%

**Query** Write INHIBITION of CC(=O)N(C)C1CCN(C(=O)NCCc2cc(F)ccc2F)CC1 ; system used: Plasmodium berghei
**Result** -6.67%

---

# Tested on: Plasmodium berghei
# assayExplanation: Screen against P. berghei liver stage (PbLuc), transformed with Luciferase, at 10uM
# Format: functional, HepG2
# conditionsUsed: tested at 10 uM
About 8,600 (12%) of roughly 69,000 compounds showed an effect of 50% or more. Shown is part of a subset that was picked to be rich in strong results.
Note: every record was labeled by where its INHIBITION sits among low bin = under 20%, mid bin = from 20% up to 40%, high bin = 40% and over

**Query** Form field 'band' for CCC1CN(C(=O)c2ncccc2O)CCC(=O)N1Cc1ccccc1 (stereo not given)
**Result** low bin

**Query** Form field 'band' for CCCS(=O)(=O)N1C[C@@H](Oc2ncccc2F)[C@H]2OCCC[C@H]21
**Result** mid bin

**Query** Form field 'band' for Cn1cnnc1C1CCCN(C(=O)c2cc(-c3ccccc3)on2)C1 (stereo not given)
**Result** high bin

**Query** Form field 'band' for COC(C)(C)CNC(=O)c1cn(-c2cccc(Cl)c2F)nn1
**Result** low bin

**Query** Form field 'band' for O=c1oc(-c2cccs2)nn1CC(O)c1ccccc1F (stereo not given)
**Result** mid bin

---

# System: Plasmodium berghei
# assayExplanation: Screen against P. berghei liver stage (PbLuc), transformed with Luciferase, at 10uM
# Assay type: functional, HepG2
# conditionsUsed: tested at 10 uM
Out of some 69,000 compounds screened, about 8,600 (12%) showed an effect of 50% or more. This excerpt belongs to a sample that is enriched for strong results.
Entries and their INHIBITION values follow.
Form entry: value (%) — number only.

Some entries whose results are on file:
**Query** Given the molecule CCn1c(C2CCN(C(=O)CCc3cc(Cl)no3)CC2)nn(C)c1=O , write its reported INHIBITION.
**Result** 0

**Query** Given the molecule Cn1cc(C2CC(=O)NC23CCN(Cc2nccs2)CC3)cn1 (stereo unspecified) , write its reported INHIBITION.
**Result** -0.371

**Query** Given the molecule CCCS(=O)(=O)N1C[C@H]2CC[C@@H](C1)N(Cc1cscn1)C2=O , write its reported INHIBITION.
**Result** 53.3

**Query** Given the molecule c1ccc(COCCN2CCc3[nH]cnc3C2c2ccco2)cc1 (stereo unspecified) , write its reported INHIBITION.
**Result** 63.3

**Query** Given the molecule Cn1cnc(S(=O)(=O)N2C[C@H]3CC[C@@H](C2)N(Cc2cscn2)C3=O)c1 , write its reported INHIBITION.
**Result** 10.5

***
**Query** Given the molecule O=C1[C@@H]2CC[C@@H](CN(S(=O)(=O)c3ccccc3)C2)N1Cc1cscn1 , write its reported INHIBITION.
**Result** 25.1

**Query** Given the molecule CS(=O)(=O)N1C[C@H]2CC[C@@H](C1)N(Cc1cscn1)C2=O , write its reported INHIBITION.
**Result** 13.5

**Query** Given the molecule CN(C)c1ncc(NC(=O)N2CCC(CN3CCCC3)C2)cn1 (stereo unspecified) , write its reported INHIBITION.
**Result** -45

**Query** Given the molecule c1ccc(COCCN2CCc3[nH]cnc3C2c2ccoc2)cc1 (stereo unspecified) , write its reported INHIBITION.
**Result** 9.63

**Query** Given the molecule COCC1Cn2nnc(-c3cnn(C)c3)c2CN1Cc1ccc(C)o1 (stereo unspecified) , write its reported INHIBITION.
**Result** -1.12

**Query** Given the molecule Cc1ccc(Oc2ncccc2C(=O)N(C)CC2OCCO2)c(C)c1 , write its reported INHIBITION.
**Result** -17.2
